Source: patent US5750782A

Entries and their CT10 ratio (air/N2)
System: UV4 cells
protocol-notes: Clonogenic assay, UV4 cells (CT10), aerobic and hypoxic
Assay type: cell-based
run-parameters: UV4 cells; aerobic CT10/hypoxic CT10

Completed entries (count: 6):
| mol-smiles | test-result |
| --- | --- |
| N#Cc1cc(N(CCCl)CCCl)c([N+](=O)[O-])cc1[N+](=O)[O-] | 8.5 |
| CN(C)C(=O)c1cc(N(CCCl)CCCl)c([N+](=O)[O-])cc1[N+](=O)[O-] | > 20 |
| O=C(O)CCNC(=O)c1cc(N(CCCl)CCCl)c([N+](=O)[O-])cc1[N+](=O)[O-] | 2 |
| O=C(c1cc(N(CCCl)CCCl)c([N+](=O)[O-])cc1[N+](=O)[O-])N1CCOCC1 | 1.6 |
| O=C(O)c1cc(N(CCCl)CCCl)c([N+](=O)[O-])cc1[N+](=O)[O-] | > 2 |
| CN(C)CCNC(=O)c1c([N+](=O)[O-])ccc(N(CCCl)CCCl)c1[N+](=O)[O-] | 130 |

Continue with the next compound.
Record `C[N+](C)([O-])CCNC(=O)c1cc(N(CCCl)CCCl)c([N+](=O)[O-])cc1[N+](=O)[O-]` . Reported CT10 ratio (air/N2): < 10

###

Test system: UV4 cells
protocol-notes: Clonogenic assay, UV4 cells (CT10), aerobic and hypoxic
Assay type: cell-based
run-parameters: UV4 cells; aerobic CT10/hypoxic CT10
Kindly return Yes if reported CT10 ratio (air/N2) is no lower than 40; return No if it is lower.

| molecule | class-name |
| --- | --- |
| O=C(NCC(O)CO)c1cc(N(CCCl)CCCl)c([N+](=O)[O-])cc1[N+](=O)[O-] (centres unmarked) | No |
| NC(=O)c1cc(N(CCCl)CCCl)c([N+](=O)[O-])cc1[N+](=O)[O-] | Yes |
| NC(=O)c1cc(N(CCBr)CCBr)c([N+](=O)[O-])cc1[N+](=O)[O-] | No |
| NC(=O)c1cc(N(CCI)CCI)c([N+](=O)[O-])cc1[N+](=O)[O-] | Yes |

Prompt: Reported CT10 ratio (air/N2) at or above 40? `O=C(NCCN1CCOCC1)c1cc(N(CCCl)CCCl)c([N+](=O)[O-])cc1[N+](=O)[O-]`
Completion: Yes

###

System: UV4 cells
protocol-notes: Clonogenic assay, UV4 cells (CT10), aerobic and hypoxic
Assay type: cell-based
run-parameters: air; concentration x time to reduce UV4 cell survival to 10% of control
readout-type: CT10 (UV4)

Completed entries (count: 6):
| molecule | test-result |
| --- | --- |
| CN(C)C(=O)c1cc(N(CCCl)CCCl)c([N+](=O)[O-])cc1[N+](=O)[O-] | > 3500 μM-h |
| N#Cc1cc(N(CCCl)CCCl)c([N+](=O)[O-])cc1[N+](=O)[O-] | 86 μM-h |
| NC(=S)c1cc(N(CCCl)CCCl)c([N+](=O)[O-])cc1[N+](=O)[O-] | > 60 μM-h |
| CS(=O)(=O)OCCN(CCOS(C)(=O)=O)c1cc(C(N)=O)c([N+](=O)[O-])cc1[N+](=O)[O-] | 1200 μM-h |
| CN(C)CCNC(=O)c1cc([N+](=O)[O-])cc([N+](=O)[O-])c1N(CCCl)CCCl | 1200 μM-h |
| O=C(O)CCNC(=O)c1cc(N(CCCl)CCCl)c([N+](=O)[O-])cc1[N+](=O)[O-] | 14000 μM-h |

Continue with the next molecule.
Record `O=C(c1cc(N(CCCl)CCCl)c([N+](=O)[O-])cc1[N+](=O)[O-])N1CCOCC1` . Reported CT10 (UV4): 156 μM-h

###

System: UV4 cells
protocol-notes: Clonogenic assay, UV4 cells (CT10), aerobic and hypoxic
Format: cell-based
run-parameters: UV4 cells; aerobic CT10/hypoxic CT10
readout-type: CT10 ratio (air/N2)
The reply should be a number, written without any unit.

| mol-smiles | test-result |
| --- | --- |
| CS(=O)(=O)OCCN(CCOS(C)(=O)=O)c1cc(C(N)=O)c([N+](=O)[O-])cc1[N+](=O)[O-] | 17 |

Record `CN(C)CCNC(=O)c1cc([N+](=O)[O-])cc([N+](=O)[O-])c1N(CCCl)CCCl` . Reported CT10 ratio (air/N2): 36

###

Tested on: UV4 cells
protocol-notes: Clonogenic assay, UV4 cells (CT10), aerobic and hypoxic
Assay type: cell-based
run-parameters: UV4 cells; aerobic CT10/hypoxic CT10
Entries and their CT10 ratio (air/N2)

| compound | readout-type | test-result |
| --- | --- | --- |
| NC(=O)c1cc([N+](=O)[O-])c(N(CCCl)CCCl)c([N+](=O)[O-])c1 [Compound 23] | CT10 ratio (air/N2) | > 1 |

Record NC(=O)c1c([N+](=O)[O-])ccc(N(CCCl)CCCl)c1[N+](=O)[O-] [Compound 21] . Reported CT10 ratio (air/N2): > 3

Record NC(=S)c1cc(N(CCCl)CCCl)c([N+](=O)[O-])cc1[N+](=O)[O-] [Compound 13] . Reported CT10 ratio (air/N2): > 3

###

System: UV4 cells
protocol-notes: Clonogenic assay, UV4 cells (CT10), aerobic and hypoxic
Format: cell-based
run-parameters: air; concentration x time to reduce UV4 cell survival to 10% of control
Lab note: anything with CT10 (UV4) below 3000 μM-h is marked Condition met; values at 3000 μM-h or higher are marked Condition not met.

| compound | class-name |
| --- | --- |
| NC(=O)c1cc(N(CCI)CCI)c([N+](=O)[O-])cc1[N+](=O)[O-] | Condition met |

// switching to the query compound
Prompt: Quick check: does `O=C(NCCN1CCOCC1)c1cc(N(CCCl)CCCl)c([N+](=O)[O-])cc1[N+](=O)[O-]` have CT10 (UV4) under 3000 μM-h?
Completion: Condition not met

###

Test system: UV4 cells
protocol-notes: Clonogenic assay, UV4 cells (CT10), aerobic and hypoxic
Format: cell-based
run-parameters: air; concentration x time to reduce UV4 cell survival to 10% of control
readout-type: CT10 (UV4)

Completed entries (count: 6):
| molecule | CT10 (UV4) |
| --- | --- |
| NC(=O)c1cc(N(CCBr)CCBr)c([N+](=O)[O-])cc1[N+](=O)[O-] | 160 μM-h |
| NC(=O)c1cc(N(CCCl)CCCl)c([N+](=O)[O-])cc1[N+](=O)[O-] | 2925 μM-h |
| CN(C)CCNC(=O)c1c([N+](=O)[O-])ccc(N(CCCl)CCCl)c1[N+](=O)[O-] | 3600 μM-h |
| C[N+](C)([O-])CCNC(=O)c1cc(N(CCCl)CCCl)c([N+](=O)[O-])cc1[N+](=O)[O-] | < 14400 μM-h |
| NC(=O)c1c([N+](=O)[O-])ccc(N(CCCl)CCCl)c1[N+](=O)[O-] | > 300 μM-h |
| NC(=O)c1cc([N+](=O)[O-])cc([N+](=O)[O-])c1N(CCCl)CCCl | > 300 μM-h |

Continue with the next molecule.
Record `NC(=O)c1cc([N+](=O)[O-])c(N(CCCl)CCCl)c([N+](=O)[O-])c1` . Reported CT10 (UV4): > 450 μM-h

###

System: UV4 cells
protocol-notes: Clonogenic assay, UV4 cells (CT10), aerobic and hypoxic
Format: cell-based
run-parameters: air; concentration x time to reduce UV4 cell survival to 10% of control
Entries and their CT10 (UV4)

| compound | CT10 (UV4) |
| --- | --- |
| O=C(O)c1cc(N(CCCl)CCCl)c([N+](=O)[O-])cc1[N+](=O)[O-] | > 30000 μM-h |
| CN(C)CCNC(=O)c1cc([N+](=O)[O-])c(N(CCCl)CCCl)c([N+](=O)[O-])c1 | > 273 μM-h |

Continue with the next compound.
CT10 (UV4) for UV4 cells with input O=C(NCC(O)CO)c1cc(N(CCCl)CCCl)c([N+](=O)[O-])cc1[N+](=O)[O-] (stereo not drawn) equals 3340 μM-h
